protocolDetails: solvent given as SMILES
assaySetup: in CCCCCCC
Use 500 nm as the dividing line for emission maximum, with the line itself on the Yes side and lower values as No.

lineNotation | class
O=c1[nH]c2ccccc2[nH]1 | No
CN(C)c1ccc(/C=C/c2cc(/C=C/c3ccc(N(C)C)cc3)nc(/C=C/c3ccc(N(c4ccccc4)c4ccccc4)cc3)n2)cc1 | No
N#C[Se]CCCCCOc1ccc2ccc(=O)oc2c1 | No
CN(C)c1ccc2nc(/C=C/c3cc4c5c(c3)CCCN5CCC4)c(=O)oc2c1 | Yes
CN(C)c1ccc(/C=C/c2nc3ccc(N(C)C)cc3oc2=O)cc1 | Yes
O=[N+]([O-])c1ccc(/C=C/c2cn(S(=O)(=O)c3ccccc3)c3ccccc23)cc1 | No
c1ccc2c3c(ccc2c1)-c1cccc2cc4ccccc4c-3c12 | Yes
c1ccc2c3c(ccc2c1)-c1cccc2c1c-3cc1ccccc12 | No

###

Catalogue of compounds with associated emission maximum
protocolDetails: solvent given as SMILES
assaySetup: in C1CCCCC1

compound | emission maximum, nm
COC(=O)C(Cc1ccc2oc(-c3ccc(Nc4ccccc4)cc3)nc2c1)NC(=O)OC(C)(C)C (centres undefined) | 382
CC(C)(C)c1ccc2c(c1)Sc1cc(C(C)(C)C)ccc1N2c1ccc2c(ccc3nc4ccc5cc(N6c7ccc(C(C)(C)C)cc7Sc7cc(C(C)(C)C)ccc76)ccc5c4nc32)c1 | 575
C[Si](C)(c1cccc2cc3ccccc3cc12)[Si](C)(C)c1cccc2cc3ccccc3cc12 | 412
CCCCC(CC)Cn1c2cc(C#N)ccc2c2cc(-c3ccc(N(c4ccccc4)c4ccccc4)cc3)c(C#N)cc21 (centres undefined) | 444
Cc1cc(C)c(B(c2ccc(N3c4ccccc4Oc4ccccc43)cc2)c2c(C)cc(C)cc2C)c(C)c1 | 475.13
c1ccc2c(-n3cnc4ccccc43)cccc2c1 | 358
CCOC(=O)CCOc1ccccc1C(c1c(C)[nH]c2ccccc12)c1c(C)[nH]c2ccccc12 | 329
COC(=O)c1ccc(C#Cc2ccc(N(C)C)cc2)cc1 | 426
CCC(C)(C)c1ccc2c(c1)C(CCOC)(CCOC)c1cc(-c3ccc(-c4ccc5c(c4)C(CCOC)(CCOC)c4cc(C(C)(C)CC)ccc4-5)cc3)ccc1-2 | 380
COc1ccc2c3c(c4ccc(OC)cc4c2c1)C1(c2ccccc2-c2ccccc21)c1ccccc1-3 | 389
C[Si](C)(C)c1ccc(C#N)c2ccccc12 | 333
CC(=O)c1c2c(cc3cc(N(C)C)ccc13)CCC2 | 445
N#Cc1c2nc3ccccn3c2nc2nc3ccccn3c12 | 485
CC1(C)CCc2c(c3ccccc3c3nc4c(nc23)c2c(c3ccccc34)OC(C)(C)CC2)O1 | 434.97
CNc1cccc2c1C(=O)c1ccccc1-2 | 497
O=P1(c2ccccc2)C(c2cc(C(F)(F)F)cc(C(F)(F)F)c2)=Cc2c3ccc4cccc5ccc(c6cc(-c7ccc(N(c8ccccc8)c8ccccc8)cc7)n1c26)c3c45 (centres undefined) | 558
CC(C)[Si]1(C(C)C)c2cc(C#N)ccc2-c2ccc(N(C)C)cc21 | 410
CN(C)c1ccc(/C=C/c2nc3ccc(N(C)C)cc3oc2=O)cc1 | 521
CNc1cccc2c1C(=O)c1ccccc1C2=O | 563

###

protocolDetails: solvent given as SMILES
assaySetup: in ClCCl

lineNotation | emission maximum
CN(C)c1ccc(/C=C/c2nc3ccc(N(C)C)cc3oc2=O)cc1 | 619 nm
Cc1cc(C)c(B(c2ccc(N3c4ccccc4C(C)(C)c4ccccc43)cc2)c2c(C)cc(C)cc2C)c(C)c1 | 540.77 nm
CC[N+](CC)=c1ccc2cc3oc4cc(N)ccc4c3oc-2c1 | 623 nm
O=C1c2ccccc2-c2nc3c(F)c(F)c(F)c(F)c3n21 | 485 nm
CCCCCCCc1ccc(C2=[N+]3C(=C4c5cc(OCC(CC)CC)c(-c6ccc(CCCCCCC)o6)n5[B-](F)(F)[n+]5nnn(c54)[B-]3(F)F)C=C2OCC(CC)CC)o1 | 835 nm
CC(C)(C)c1ccc2c(c1)c1cc(C(C)(C)C)ccc1n2-c1ccc(-n2c3ccc(C(C)(C)C)cc3c3cc(C(C)(C)C)ccc32)c(C(=O)c2ccncc2)c1 | 561.4 nm
CCCCOc1ccc(-c2cc3c(o2)c(-c2ccc(OCCCC)cc2)c2n3[B-](F)(F)[N+]3=Cc4c(-c5ccc(OCCCC)cc5)c5oc(-c6ccc(OCCCC)cc6)cc5n4[B-](F)(F)[N+]3=C2)cc1 | 661 nm

###

Catalogue of compounds with associated emission maximum
protocolDetails: solvent given as SMILES
assaySetup: in Cc1ccccc1

lineNotation | emission maximum, nm
c1ccc(N2c3ccc4ccccc4c3-c3c4ccccc4cn[n+]3[B-]2(c2ccccc2)c2ccccc2)cc1 | 657
CN(C)c1ccc(C2=Nc3scc(-c4ccc(N(C)C)cc4)[n+]3[B-](F)(F)O2)cc1 | 518
CCn1c2ccccc2c2cc(C#Cc3cc(C#Cc4ccc5c(c4)c4ccccc4n5CC)nc(S(C)(=O)=O)n3)ccc21 | 447
CCn1c2ccccc2c2cc(/C=C/c3cc(/C=C/c4ccc5c(c4)c4ccccc4n5CC)ncn3)ccc21 | 440

###

protocolDetails: solvent given as SMILES
assaySetup: in CN(C)C=O
Use 500 nm as the dividing line for emission maximum, with the line itself on the t side and lower values as f.

compound | class
COC(=O)C(N)Cc1ccc(O[Si]2(Oc3ccc(CC(N)C(=O)OC)cc3)n3c4c5ccccc5c3/N=C3N=C(/N=c5/c6ccccc6/c(n52)=N/C2=NC(=N\4)/c4ccccc42)c2ccccc2\3)cc1 (stereo not drawn) | t
CCNc1cc2oc3c/c(=[NH+]\CC)c(C)cc-3c(-c3ccccc3C(=O)OCC)c2cc1C | t
CN(C)c1ccc(/C=C/c2nc3ccc(N(C)C)cc3oc2=O)cc1 | t
CCn1c2ccccc2c2cc(C#Cc3cc(C#Cc4ccc5c(c4)c4ccccc4n5CC)nc(S(C)(=O)=O)n3)ccc21 | t
N#CC(C#N)=Cc1cn(-c2ccccc2)nc1-c1ccccc1 | f
O=C1Nc2ccccc2/C1=C/C(=O)c1ccc(Cl)cc1 | f
CC1=[N+]2C(=C(c3c4ccccc4cc4ccccc34)c3ccc(C)n3[B-]2(F)F)C=C1 | t

###

protocolDetails: solvent given as SMILES
assaySetup: in CC#N
Catalogue of compounds with associated emission maximum
readoutKind: emission maximum (nm)

compound | testResult
COC(=O)c1nc2c(N(C)C)nc(N)nc2n1Cc1ccccc1 | 399
CSc1ccc2c(c1)N(CCCN1CCN(C)CN1C)c1ccccc1S2 | 455
Cc1cc(C)c(B(c2cc3c4c(c(B(c5c(C)cc(C)cc5C)c5c(C)cc(C)cc5C)cc5c4c2CCC5)CCC3)c2c(C)cc(C)cc2C)c(C)c1 | 465.9
CCN(CC)c1ccc(-c2ccc(-c3nc(C#N)c4ccccc4n3)s2)cc1 | 539
COc1ccc(/C=C/c2nc(/C=C/c3ccc(N(C)C)cc3)cc(/C=C/c3ccc(N(C)C)cc3)n2)cc1 | 581
CCCCC(CC)Cn1c2cc(C#N)ccc2c2cc(-c3ccc(N(c4ccccc4)c4ccccc4)cc3)c(C#N)cc21 (stereo not given) | 548
CCOC(=O)c1sc2nc(-c3ccccc3)c(C)c(C#N)c2c1N | 570
O=[N+]([O-])c1ccc(/C=C/c2cn(S(=O)(=O)c3ccccc3)c3ccccc23)cc1 | 593
c1ccc2sc(-c3ccc(-c4nnc(-c5ccc(-c6nnc(-c7ccc(-c8cc9ccccc9s8)s7)o6)cc5)o4)s3)cc2c1 | 399
COc1ccc(-c2[nH]c(=O)n3c2-c2ccccc2C3=O)c(OC)c1 | 492
CC(C)(C)Nc1oc(C=Cc2ccccc2)c(C(=O)OC(C)(C)C)c1C(=O)OC(C)(C)C | 460
CC(C)(C)C1Nc2ccccc2C(=O)N1c1ccccc1 (stereo not given) | 417
c1cc2ccc1CCCc1ccc(c3nsnc13)CCC2 | 497
N#C/C(=C\c1ccc(C#N)cc1)c1nc(-c2ccc(Cl)cc2)c(-c2ccccc2)s1 | 522
CCOC(=O)CCOc1ccccc1C(c1c(C)[nH]c2ccccc12)c1c(C)[nH]c2ccccc12 | 340
CCN(CC)c1ccc2c(C)cc(=O)oc2c1 | 430
COc1ccc(C2=CC(c3ccc(OC)cc3)=[O+][B-](C(C)=O)(C(C)=O)O2)cc1 | 435
COc1cccc(-n2c(-c3ccc(O)cc3)nc(C)c2C)c1 | 364
O=C1CCCC2=C1CC1=C(CCCC1=O)N2NC(=O)c1ccc(O)cc1 | 434
COC(=O)/C=C/c1sc(-c2ccc(N(C)C)cc2)c(-c2cccnc2)c1N | 593

###

Catalogue of molecules with associated emission maximum
protocolDetails: solvent given as SMILES
assaySetup: in C1CCCCC1

molecule | unit | emission maximum
CCN(CC)c1ccc(/C=C/C2=[O+][B-](F)(F)Oc3c2c(=O)oc2cc(N(CC)CC)ccc32)cc1 | nm | 556
CCCCCCCCCCCCC(CCCCCCCCCC)Cn1c2cc(/C=C/C=C(C#N)C#N)c3cccc4c5cccc6c(/C=C/C=C(C#N)C#N)cc1c(c65)c2c34 (stereo not given) | nm | 648
CCCCC1=Cc2c3ccc4cccc5ccc(c6cc(-c7ccc(N(c8ccccc8)c8ccccc8)cc7)n(c26)P1(=O)c1ccccc1)c3c45 (stereo not given) | nm | 502
C(=C\c1ncc2ccccc2n1)/c1ccc(N(c2ccccc2)c2ccccc2)cc1 | nm | 449
Nc1cccc2c1-c1ccccc1C2=O | nm | 513
CC(C)c1ccc(/C=C/c2nc3ccc(N(C)C)cc3s2)cc1 | nm | 454
COOCc1noc(-c2ccccc2)c1Br | nm | 345
CC1(C)c2ccccc2N(c2ccc3c(ccc4nc5ccc6cc(N7c8ccccc8C(C)(C)c8ccccc87)ccc6c5nc43)c2)c2ccccc21 | nm | 484
Cc1cccc(Nc2ccccc2C(=O)O)c1C | nm | 438
Cc1ccc(C)c(C)c1 | nm | 295.77
CCN1/C(=C\c2c(-c3ccc(N(C)C)cc3)c(=O)c2=O)C=Cc2ccccc21 | nm | 427
CCC(C)(C)c1ccc2c(c1)C(CCOC)(CCOC)c1cc(-c3ccc4c(c3)C(CCOC)(CCOC)c3cc(C(C)(C)CC)ccc3-4)ccc1-2 | nm | 371
COc1ccc(OC)cc1 | nm | 323.21
C(#Cc1cnc(C#Cc2ccccc2)nc1)c1ccccc1 | nm | 425
COc1ccc2c3c(c4ccc(OC)cc4c2c1)C(C)(C)c1cc(-c2ccccc2)ccc1-3 | nm | 392
COc1ccc(N(c2ccc(OC)cc2)c2ccc3c4cccc5c(N(c6ccc(OC)cc6)c6ccc(OC)cc6)ccc(c6cccc2c63)c54)cc1 | nm | 551
CCC1(CC)c2cc(C=O)ccc2-c2ccc(N(C)C)cc21 | nm | 416
N#Cc1cc2ccc(O)cc2oc1=O | nm | 411
N#Cc1c2nc3ccccn3c2nc2c1nc1ccccn12 | nm | 460
COc1ccc2c3c(c4ccc(OC)cc4c2c1)C(C)(C)c1c-3ccc2ccccc12 | nm | 396

Hey, just so you know, these numbers are from the Deep4Chem optical property database.
